# test-description: viability loss in pontine glioma line – cell-based, SU-DIPG-IV, MIPE4.0, CellTiter-Glo, qHTS, dose response (AID 1347063);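 note: compound exposure lasted 48 hours before the viability readout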
# experimental-parameters: CellTiter-Glo ATP luminescence
Inconclusive results are not listed. Calls of active or inactive are those of the source. No cut-off is given here; in the data, nearly all actives have AC50 up to about 30 µM.
Can you answer with just one of these options? active, inactive

Problem: What call does the record list for `O=C(O)[C@@H](c1ccc(OCc2ccc3ccccc3n2)cc1)C1CCCC1` ?
Result: inactive

Problem: What call does the record list for `OC[C@H]1O[C@@H](n2cnc3c2NC=NC[C@H]3O)C[C@@H]1O` ?
Result: inactive

Problem: What call does the record list for `CCCCCCCCCCCCCC(=O)N[C@H](CO)[C@H](O)c1ccc([N+](=O)[O-])cc1` ?
Result: active

Problem: What call does the record list for `Cn1c(=O)c(F)c(Nc2ccc(I)cc2F)c2c(=O)n(C[C@@H](O)CO)cnc21` ?
Result: active

Problem: What call does the record list for `C1=C/COCc2cc(ccc2OCCN2CCCC2)Nc2nccc(n2)-c2cccc(c2)OCC/1` ?
Result: active

Problem: What call does the record list for `C[C@H]1[C@H](OC(=O)CCC(=O)O)O[C@@H]2O[C@@]3(C)CC[C@H]4[C@H](C)CC[C@@H]1[C@@]24OO3` ?
Result: active

Problem: What call does the record list for `C[C@]12CC[C@@H]3c4ccc(O)cc4CC[C@H]3[C@@H]1[C@@H](O)[C@@H](O)[C@@H]2O` ?
Result: inactive

Problem: What call does the record list for `CCOC(=O)[C@H]1O[C@@H]1C(=O)N[C@@H](CC(C)C)C(=O)NCCC(C)C` ?
Result: inactive

Problem: What call does the record list for `N#CC[C@H](C1CCCC1)n1cc(-c2ncnc3[nH]ccc23)cn1` ?
Result: inactive

----------
# test-description: growth inhibition of DIPG cells – cell-based, MIPE5.0 library, qHTS (AID 1347068);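 for IC50: cells exposed to compound for 48 hours before viability readout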
# experimental-parameters: SU-DIPG-XXV viability
Inconclusive results are not listed. Active and inactive are the calls of the source. No cut-off is given here; in the data, nearly all actives have IC50 up to about 30 µM.
Can you answer with just one of these options? active, inactive

Problem: What call does the record list for `CC[C@H](/C=C/[C@@H](C)[C@H]1CC[C@H]2[C@@H]3CC=C4C[C@@H](O)CC[C@]4(C)[C@H]3CC[C@]12C)C(C)C` ?
Result: inactive

Problem: What call does the record list for COc1cc(O)c2c(c1)C1OC1C[C@H](O)[C@H](O)C(=O)/C=C\C[C@H](C)OC2=O (some centres undefined) ?
Result: active

Problem: What call does the record list for `CCOC(=O)N1c2ccc(C(F)(F)F)cc2[C@@H](N(Cc2cc(C(F)(F)F)cc(C(F)(F)F)c2)C(=O)OC)C[C@H]1CC` ?
Result: inactive

Problem: What call does the record list for `c1cc(Nc2cc(C3CC3)[nH]n2)nc(Nc2ccc3nc[nH]c3c2)n1` ?
Result: active

----------
# test-description: growth inhibition, single agents and combos, HTB85, cell-based, BGB or cisplatin IC20 combos, synergistic combos for chromothripsis tumors (AID 1671453);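 note: cells exposed for 96 hours before readout; 0% = vehicle DMSO and 100% = high DMSO killing control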
# experimental-parameters: HTB85 osteosarcoma cells, drug combinations, measured here: with BGB IC20, at 0.5 µM, stronger effect = higher value
Could you please report measured inhibition for the items listed next?
The reply should contain only the number, in %.

Problem: I'd like to know its inhibition. The molecule in question is `CC(=O)[C@]1(N)Cc2c(O)c3c(c(O)c2[C@@H](O[C@H]2C[C@H](O)[C@H](O)CO2)C1)C(=O)c1ccccc1C3=O`
Result: 3.02

Problem: I'd like to know its inhibition. The molecule in question is `CN[C@@H]1CN(c2ccc3c(=O)c(C(=O)O)cn(-c4nccs4)c3n2)C[C@H]1OC`
Result: 49.9

Problem: I'd like to know its inhibition. The molecule in question is `CC(C)OC(=O)[C@H](C)N[P@](=O)(OC[C@H]1O[C@@H](n2ccc(=O)[nH]c2=O)[C@](C)(F)[C@@H]1O)Oc1ccccc1`
Result: 45.6

Problem: I'd like to know its inhibition. The molecule in question is `CS(=O)(=O)c1ccc(-c2nnc(/C=C/c3nnc(-c4ccc(C#N)cc4)o3)n2-c2ccccc2Cl)nc1`
Result: 7.63

Problem: I'd like to know its inhibition. The molecule in question is `COc1cc(C=O)c([N+](=O)[O-])cc1OC`
Result: -22.3

Problem: I'd like to know its inhibition. The molecule in question is `CC(=O)Nc1ccc(C(=O)Nc2ccccc2N)cc1`
Result: 23.1

Problem: I'd like to know its inhibition. The molecule in question is `O=c1cc(N2CCOCC2)oc2c(-c3cccc4c3sc3ccccc34)cccc12`
Result: 1.92

Problem: I'd like to know its inhibition. The molecule in question is `O=C(O)CO.[NH2-].[NH2-].[Pt+2]`
Result: 26.1

Problem: I'd like to know its inhibition. The molecule in question is `Nc1nc2n[nH]nc2c(=O)[nH]1`
Result: -34.4

Problem: I'd like to know its inhibition. The molecule in question is NC1CCC(N[C@@H]2C[C@H]2c2ccccc2)CC1 (stereo not given in full)
Result: 13

----------
# test-description: viability loss in pontine glioma line – cell-based, SU-DIPG-XXV, MIPE5.0, CellTiter-Glo, qHTS, dose response (AID 1347065);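 note: cells exposed to compound for 48 hours before ATP readout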
# experimental-parameters: CellTiter-Glo ATP luminescence
Results filed as inconclusive are left out. The source made the active and inactive calls. The limit is not given here; nearly all actives have AC50 up to about 26 µM.
Can you answer with just one of these options? class 1 = active, class 0 = inactive

Problem: What call does the record list for `C=C1C(=O)O[C@@H]2[C@H]3O[C@]3(C)CC/C=C(\C)CC[C@@H]12` ?
Result: class 1

Problem: What call does the record list for `O=C(C1CC1)N1CC[C@@H](Cn2c(-c3ccc(-c4ccc5occc5c4)cc3)nc3cnccc32)C1` ?
Result: class 1

Problem: What call does the record list for `COC(=O)c1ccc2c(C(=Nc3ccc(N(C)C(=O)CN4CCN(C)CC4)cc3)c3ccccc3)c(O)[nH]c2c1` ?
Result: class 1

Problem: What call does the record list for `CC(=O)OC[C@@H]1O[C@@H](n2ccc(=O)[nH]c2=O)[C@H](OC(C)=O)[C@@H]1OC(C)=O` ?
Result: class 0

Problem: What call does the record list for `CC(C)n1nc(-c2ccc3oc(N)nc3c2)c2c(N)ncnc21` ?
Result: class 1

----------
# test-description: drug combination growth inhibition, ovarian cancer – cell-based, oncology-focused library, rucaparib conditional, profiling panel (AID 1508598)
# experimental-parameters: patient-derived ovarian cancer cells, CellTiter-Glo viability, 144 h; at 0.00122 µM; OCI-P5x cells; without rucaparib
Active and inactive are the calls of the source.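 How the source made its calls: active means normalized viability below 100% at a tested concentration; inactive means the rest.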
Can you answer with just one of these options? true (1) = active, false (0) = inactive

Problem: What call does the record list for `COc1cc2nccc(Oc3ccc(NC(=O)C4(C(=O)Nc5ccc(F)cc5)CC4)cc3)c2cc1OC` ?
Result: true (1)

Problem: What call does the record list for CC(C)C[C@H](NC(=O)CNC(=O)c1cc(Cl)ccc1Cl)B1OC(=O)CC(CC(=O)O)(C(=O)O)O1 (stereo not given in full) ?
Result: false (0)

Problem: What call does the record list for `Cc1ccc2nc(NC(=O)CSc3nc4c(c(=O)n3-c3ccccc3)SCC4)sc2c1` ?
Result: false (0)

Problem: What call does the record list for `Cn1c(=O)c(F)c(Nc2ccc(I)cc2F)c2c(=O)n(C[C@@H](O)CO)cnc21` ?
Result: true (1)

Problem: What call does the record list for `O=C(Nc1ccccc1-c1cn2c(CN3CCNCC3)csc2n1)c1cnc2ccccc2n1` ?
Result: false (0)

----------
# test-description: growth inhibition of DIPG cells – cell-based, MIPE5.0 library, qHTS (AID 1347068);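 for IC50: cells exposed to compound for 48 hours before viability readout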
# experimental-parameters: SU-DIPG-XXV viability
Results filed as inconclusive are left out. Activity calls are given as the source filed them. No cut-off is given here; in the data, nearly all actives have IC50 up to about 30 µM.
Can you answer with just one of these options? y (active), n (inactive)

Problem: What call does the record list for `COC[C@@H](c1ccc(C(F)(F)F)cc1)N1CCN(C2(C)CCN(C(=O)c3c(C)ncnc3C)CC2)C[C@@H]1C` ?
Result: n

Problem: What call does the record list for `Nc1cccc(-c2cc3c(Oc4cccc(O)c4)ncnc3[nH]2)c1` ?
Result: y

Problem: What call does the record list for `O=c1[nH]c([C@@H]2CCCN2)nc2c1oc1ccc(Cl)cc12` ?
Result: n

Problem: What call does the record list for `CN(C)CCNC(=O)COc1c2cccc1Cc1cccc(c1OCC(=O)NCCN(C)C)Cc1cccc(c1OCC(=O)NCCN(C)C)Cc1cccc(c1OCC(=O)NCCN(C)C)C2` ?
Result: n

Problem: What call does the record list for `c1cncc(CN2CCC(n3ncc4c(N5CCOCC5)nc(-c5ccc6[nH]ccc6c5)nc43)CC2)c1` ?
Result: n

Problem: What call does the record list for `COC(=O)N[C@@H](C)CNc1nccc(-c2cn(C(C)C)nc2-c2cc(Cl)cc(NS(C)(=O)=O)c2F)n1` ?
Result: n

Problem: What call does the record list for `CC(C)n1cnc2c(NCCc3ccc(O)cc3)nc(-c3csc4ccccc34)nc21` ?
Result: n

Problem: What call does the record list for CCNC(=O)CCC/C=C\C[C@@H]1[C@@H](/C=C/C(O)CCc2ccccc2)[C@@H](O)C[C@@H]1O (stereo partly drawn) ?
Result: n
